# System: 354836-022-R-J1-PDC multicell spheroid viability
# TEST_METHOD_NOTES: Anticancer human tumor 354836-022-R-J1-PDC patient-derived head and neck squamous cell carcinoma cell line growth inhibition [PI3K]
# CONDITIONS: second compound 0.01 µM; first compound 0.1 µM; active compounds read low
Each record here notes measured viability, T/C.

{"COMPOUND": "CC(C)n1nc(-c2ccc3oc(N)nc3c2)c2c(N)ncnc21 + COc1c(OCCCN2CCOCC2)ccc2c3n(c(=NC(=O)c4cnc(N)nc4)nc12)CCN3", "viability, T/C (%)": 3.55}
{"COMPOUND": "CNC(=O)c1ccc(N2C(=S)N(c3ccc(C#N)c(C(F)(F)F)c3)C(=O)C2(C)C)cc1F + CC(Nc1ccc2c(c1)OCCn1cc(N3C(=O)OCC3C(F)F)nc1-2)C(N)=O", "viability, T/C (%)": 88}
{"COMPOUND": "C#Cc1c(F)ccc2cc(O)cc(-c3ncc4c(N5CC6CCC(C5)N6)nc(OCC56CCCN5CC(F)C6)nc4c3F)c12 (stereo unspecified) + CC(Nc1ccc2c(c1)OCCn1cc(N3C(=O)OCC3C(F)F)nc1-2)C(N)=O", "viability, T/C (%)": 98.9}
{"COMPOUND": "CC(=O)c1c(C)c2cnc(Nc3ccc(N4CCNCC4)cn3)nc2n(C2CCCC2)c1=O + CC(Nc1ccc2c(c1)OCCn1cc(N3C(=O)OCC3C(F)F)nc1-2)C(N)=O", "viability, T/C (%)": 105}
{"COMPOUND": "CC(Cn1ccc(-c2ccc(C#N)c(Cl)c2)n1)NC(=O)c1cc(C(C)O)[nH]n1 (stereo unspecified) + COc1c(OCCCN2CCOCC2)ccc2c3n(c(=NC(=O)c4cnc(N)nc4)nc12)CCN3", "viability, T/C (%)": 104}
{"COMPOUND": "C=CC(=O)N1CCN(c2nc(=O)n(-c3c(C)ccnc3C(C)C)c3nc(-c4c(O)cccc4F)c(F)cc23)C(C)C1 (stereo unspecified) + CC(Nc1ccc2c(c1)OCCn1cc(N3C(=O)OCC3C(F)F)nc1-2)C(N)=O", "viability, T/C (%)": 91.8}

====

# Tested on: 354836-022-R-J1-PDC multicell spheroid viability
# TEST_METHOD_NOTES: Anticancer human tumor 354836-022-R-J1-PDC cell line growth inhibition [PI3K];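 also: spheroids exposed to agents for seven days before the viability read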
# CONDITIONS: second compound 1 µM; first compound 0.316 µM; active compounds read low
Each record here notes measured viability, T/C.

{"COMPOUND": "Cn1ncc(Cl)c1-c1cc(C(=O)NC(CN)Cc2cccc(F)c2)sc1Cl (stereo not given) + CC(Nc1ncnc2nc[nH]c12)c1cc2cccc(Cl)c2c(=O)n1-c1ccccc1", "viability, T/C": "29.6%"}
{"COMPOUND": "CC(Cn1ccc(-c2ccc(C#N)c(Cl)c2)n1)NC(=O)c1cc(C(C)O)[nH]n1 (stereo not given) + Cc1nc(NC(=O)N2CCCC2C(N)=O)sc1-c1ccnc(C(C)(C)C(F)(F)F)c1", "viability, T/C": "83%"}
{"COMPOUND": "CCN1CCN(Cc2ccc(Nc3ncc(F)c(-c4cc(F)c5nc(C)n(C(C)C)c5c4)n3)nc2)CC1 + Cc1nc(NC(=O)N2CCCC2C(N)=O)sc1-c1ccnc(C(C)(C)C(F)(F)F)c1", "viability, T/C": "59.5%"}
{"COMPOUND": "C=CC(=O)N1CCN(c2nc(=O)n(-c3c(C)ccnc3C(C)C)c3nc(-c4c(O)cccc4F)c(F)cc23)C(C)C1 (stereo not given) + Cc1nc(NC(=O)N2CCCC2C(N)=O)sc1-c1ccnc(C(C)(C)C(F)(F)F)c1", "viability, T/C": "84.1%"}
{"COMPOUND": "Cn1ncc(Cl)c1-c1cc(C(=O)NC(CN)Cc2cccc(F)c2)sc1Cl (stereo not given) + Cc1nc(NC(=O)N2CCCC2C(N)=O)sc1-c1ccnc(C(C)(C)C(F)(F)F)c1", "viability, T/C": "36.9%"}
